The reported numbers originate from PubChem BioAssay (NCI).

Tested on: COLO 205 colon
Assay: NCI-60 one-dose screen, 48 h (100 = growth as untreated, 0 = no growth, -100 = all killed)
Conditions: 10 µM unless noted
About 83,000 compounds went through this panel and 20% of them were active in at least one assay; those are over-represented in the sample as a whole.
Strictly below 80% in growth: yes. Otherwise: no.

[ask] Determine if "COc1ccc(Nn2c(SCC(=O)Nc3nc(-c4ccc(Cl)cc4)cs3)nc(C)c2C)cc1" shows growth strictly lower than 80%.
[reply] yes

[ask] Moving on to the next molecule: "CCOC(=O)c1cnc2c(cnn2CC)c1NN=C(C)C"
[reply] no

[ask] Moving on to the next molecule: "Nc1nc(SN=Nc2ccc(S(N)(=O)=O)cc2)c2[nH]cnc2n1"
[reply] yes

[ask] Entry "Cc1ccc(O)c(C(=O)O)c1" please
[reply] no

[ask] Record: "O=C(Nc1ccc2ncnc(Nc3ccc(Oc4cccc(F)c4)c(Cl)c3)c2c1)c1ccc(CN2CCOCC2)cc1"
[reply] yes

[ask] Moving on to the next molecule: "O=S(=O)(NCCCNc1nccc(-c2c(-c3cccc(O)c3)nc3occn23)n1)c1ccc(F)cc1"
[reply] yes

[ask] Here is the next molecule: "COc1cc(OC)c(/C=C/C(=O)c2ccc(Nc3ncnc4ccccc34)cc2)c(OC)c1"
[reply] yes

[ask] Cool, now CS(=O)(=O)c1ccc(-c2cc3c(oc2=O)-c2ccccc2OC3O)cc1 (stereo unspecified)
[reply] no

[ask] Quick one: "COc1ccc(Cn2nc(-c3ccccc3)c3c2CCc2cnoc2-3)cc1"
[reply] no

[ask] Try this molecule too: "CCNC(=S)NNC(=O)c1cc2ccc1CCc1ccc(cc1)CC2"
[reply] no

[ask] // next record "Cc1cc(C)c(C=O)c(C)c1"
[reply] no

[ask] Here is the next molecule: "NC(=O)C1(N2CCCCC2)CCN(CCCC(=O)c2ccc(F)cc2)CC1"
[reply] yes

[ask] Next record, please: "CCCCOc1ccc(/C=N/Nc2cc(C)nc3ccc(Cl)cc23)cc1"
[reply] yes

[ask] // next record "C=C1C(=O)O[C@H]2[C@H]1CC/C(CNC(=O)/C=C/c1ccccc1F)=C\CC[C@@]1(C)O[C@@H]21"
[reply] yes

[ask] Now try O=c1[nH]c2c(s1)CCCC2CN1CCCCC1 (stereo unspecified) .
[reply] no

[ask] Next entry: "O=C(Nc1ccc(Cl)cc1)Nc1ccc(Cl)c(Cl)c1"
[reply] yes

[ask] Another molecule to check: "CN1CCN(C(=O)[C@]2(C)CC[C@]3(C)CC[C@]4(C)C(=CC(=O)[C@@H]5[C@@]6(C)CCC(=O)NC(C)(C)[C@@H]6CC[C@]54C)[C@@H]3C2)CC1"
[reply] no

[ask] Now this one: "COc1cc(Nc2cc(O)c3c(=O)cc(-c4ccccc4)oc3c2)cc(OC)c1"
[reply] yes

[ask] Next record, please: "COc1ccccc1-c1c(-c2ccc(Cl)cc2)c2cc3c(cc2[nH]c1=O)OCCO3"
[reply] no

[ask] Param item: COc1cc(NCC(O)CN(CC(C)C)CC(C)C)c2nc(C)ccc2c1 (stereo unspecified)
[reply] yes

[ask] Repeat for the following molecule: "c1ccc(CCSc2ncnc3nc[nH]c23)cc1"
[reply] no

[ask] Continue with COc1cc(C2CC(c3cccc(Nc4ccncc4)c3)=NN2c2ccc(Cl)cc2)cc(OC)c1OC (stereo unspecified)
[reply] yes

[ask] Also "CCCc1cc2c(cc1Br)OCO2" , if possible.
[reply] no

[ask] Same lookup for "COc1ccc(-c2cnnc3c(-c4cccc(C(F)(F)F)c4)cnn23)cc1" , please.
[reply] no

[ask] What about "CC1CCN(C(=O)OCc2nc3nc(Cl)nc(N4CCOCC4)c3[nH]2)CC1" ?
[reply] yes

[ask] Here is the next molecule: CCN1C(=O)N(CC)C2NC(SC)=NC21 (stereo unspecified)
[reply] no

[ask] Same lookup for "COc1ccncc1C#Cc1cncc(C(=O)Nc2ccc(CN3CCN(C)CC3)c(C(F)(F)F)c2)c1" , please.
[reply] yes

[ask] What do you have for "O=C(/C=C\c1ccc(OCCCCCC[P+](c2ccccc2)(c2ccccc2)c2ccccc2)cc1)c1ccc2c(c1)OCCO2" ?
[reply] yes

[ask] Next molecule: "O=C(CN1CCOCC1)Nc1ccc2ncnc(Nc3ccc(Oc4cccc(F)c4)c(Cl)c3)c2c1"
[reply] no

[ask] Then "CN(C)C(=O)c1cc2cnc(Nc3ccc(-c4csc5c(=O)cc(N6CCOCC6)oc45)cc3)nc2n1C1CCCC1" ?
[reply] yes

[ask] Again, but for "COc1ccc(Cc2nc3cc(OC)c(OC)cc3c(=O)[nH]2)cc1"
[reply] yes

[ask] Also COc1cc(C2CC(c3cccc(Nc4ccncc4)c3)=NN2c2ccccc2)cc(OC)c1OC (stereo unspecified) , if possible.
[reply] yes

[ask] Note, next up: "O=C(/C=C/c1ccc[nH]1)c1ccc(-n2ccc(C(F)(F)F)n2)cc1"
[reply] no

[ask] Likewise for "COc1ccc(-c2nc(SCC(C)C)nc(N/N=C(/C)c3ccc(OC)c(OC)c3)c2C#N)cc1" ?
[reply] no

[ask] Same lookup for "COc1ccc(C(=O)c2cc3c(N)c(C(=O)Nc4cccc(Br)c4C)sc3nc2C)cc1" , please.
[reply] yes

[ask] Next entry: "O=C(CSc1nc2sc3c(c2c(=O)n1Cc1ccccc1)CCCC3)N1CCN(c2ccccc2)CC1"
[reply] no

[ask] Moving on to the next molecule: "O=S(=O)(NCCCNc1nccc(-c2c(-c3ccccc3)nc3occn23)n1)c1ccc(Cl)cc1"
[reply] yes

[ask] Now consider CC1(c2ccccc2)NC(=O)N(CC(=O)Nc2cccc(I)c2)C1=O (stereo unspecified) .
[reply] no

[ask] Quick one: "CC(C)Sc1nc(NN)c(C#N)c(-c2ccccc2)n1"
[reply] no

[ask] Same read-out for "O=C(CN1CCOCC1)Nc1ccc2ncnc(Nc3ccc(OCc4cccc(F)c4)c(Cl)c3)c2c1" ?
[reply] yes

[ask] Same for "O=C(N/N=C/c1ccc(F)cc1)c1ccccc1Nc1cccc(C(F)(F)F)c1"
[reply] no
